Tested on: SK-MEL-2 melanoma
Experiment: NCI-60 one-dose screen, 48 h
Conditions: 10 µM unless noted
This is part of a sample that, as a whole, favours compounds with a hit. Of some 83,000 tested, about 20% had one in any assay. The source made the active and inactive calls. The calls were made as follows: active = growth percent below 10; inactive = the rest.
Possible outcomes: active, inactive

| COMPOUND | CLASS |
| --- | --- |
| O=S(=O)(NCCNc1nccc(-c2c(-c3cccc(F)c3)nc3sccn23)n1)c1ccc(Cl)cc1 | inactive |
| CC1=C(C(=O)/C=C/c2ccc(N(C)C)cc2)C(c2ccccc2)NC(=S)N1 (stereo not given) | inactive |
| O=C(CCN1CCCC1)Nc1ccc2c(NCCCCc3ccccc3)c3ccccc3nc2c1 | active |
| CN(C)c1ccc(Nc2c3ccccc3nc3cc(NC(=O)CCN4CCCC4)ccc23)cc1 | inactive |
| COc1cccc(-c2ccc3c(c2)NC(=O)/C3=C\c2ccc[nH]2)c1 | inactive |
| COc1cc(/C=N/NC(=O)c2cnn3c2NC(c2ccccc2)C3)ccc1OCc1ccccc1 (stereo not given) | active |
| Cc1nnc2c(Cc3ccccc3)nc3ccccc3n12 | inactive |
| COc1ccc(CNCCN2C(=O)c3ccc4c5c(ccc(c35)C2=O)C(=O)N(CCNCc2ccc(OC)c(OC)c2OC)C4=O)c(OC)c1OC | active |
| CNC(=O)c1cc(Cn2nc(C)c(NC(=O)Nc3ccc(Cl)c(C(F)(F)F)c3)c2C)ccn1 | inactive |
| CN1C(=O)NC(c2ccc3c(c2)OCO3)C=C1c1ccccc1 (stereo not given) | inactive |
| NS(=O)(=O)c1ccc(CCN2C(=O)c3cc(Cl)c(Cl)cc3C2=O)cc1 | inactive |
| CCOC(=O)c1cc(C(=O)c2ccc(OC)c(OC)c2)n2c1ccc1ccccc12 | inactive |
| CCN(CC)c1ccc(C(=O)c2ccccc2)cc1 | inactive |
| COc1cccc(-c2nc3occn3c2-c2ccnc(NCCNS(=O)(=O)c3cccc4ccccc34)n2)c1 | inactive |
| CCCCCCNC(=O)Nc1ccc2cc3ccc(NC(=O)NCCCCCC)cc3nc2c1 | inactive |
| CCCCCN1C=C/C(=C\C(=O)N(C)c2ccccc2Br)c2ccccc21 | inactive |
| COc1ccc(C(=O)c2cc(C)c(OC)c(C)c2)c(OC)c1NC(C)=O | inactive |
| COc1cc(F)c(/C=C/c2cc(/C=C/c3cc(OC)c(OC)cc3F)on2)cc1OC | inactive |
| Nc1nc(Nc2ccccc2SSc2ccccc2Nc2nc(N)nc(-c3cccs3)n2)nc(-c2ccsc2)n1 | inactive |
| c1ccc2cc(Cn3c(-c4cccc5ccccc45)[n+](Cc4ccc5ccccc5c4)c4c5ccccc5c5ccccc5c43)ccc2c1 | active |
